Entry source: patent US20160200831A1

Would you kindly list human plasma clot lysis, Imax @ 100 nM for each of these binders?
target-system: glycosylated human PAI-1 (active form) (human, UniProt P05121 24-402, glycosylated)
Sequence (P05121 24-402 limits assumed): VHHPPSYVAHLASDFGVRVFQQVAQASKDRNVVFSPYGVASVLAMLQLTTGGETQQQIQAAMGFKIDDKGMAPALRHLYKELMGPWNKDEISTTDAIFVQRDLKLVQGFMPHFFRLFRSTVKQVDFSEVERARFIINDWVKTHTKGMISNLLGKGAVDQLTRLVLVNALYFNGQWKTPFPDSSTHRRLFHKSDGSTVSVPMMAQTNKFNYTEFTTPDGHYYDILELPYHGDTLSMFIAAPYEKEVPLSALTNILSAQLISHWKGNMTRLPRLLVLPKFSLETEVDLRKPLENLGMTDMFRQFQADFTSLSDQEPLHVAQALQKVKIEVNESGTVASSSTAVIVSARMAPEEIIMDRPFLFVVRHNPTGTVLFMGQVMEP
method-description: cell-based or functional assay
One number for each entry, in %.

{"binder": "APGv2 (antibody, V domains shown, humanized APG; captured by anti-human IgG (Fc); also called APG variant 2) VH: QVQLVQSGSELKKPGASVKVSCKASGYSFTDYNMNWVRQAPGQGLEWIGIIHPNSGTTTYNQKFKGRAVLSVDQSVSTAYLQISSLKAEDTAVYYCARSKLRFFDYWGQGTLVTVSS VL: DIQLTQSPSSLSASVGDRVTITCKASQDIYSYLSWFQQKPGKAPKTLIYRANRLIDGVPSRFSGSGSGQDYTFTISSLQPEDIATYYCLQYDEFPFTFGQGTKLEIK", "reported-value": 114}
{"binder": "A44-hv11 (antibody, V domains shown, humanized A44, HEK293; compared with a human IgG1 isotype control; constant regions as for A44-hv1; also called A44V11; A44v11) VH: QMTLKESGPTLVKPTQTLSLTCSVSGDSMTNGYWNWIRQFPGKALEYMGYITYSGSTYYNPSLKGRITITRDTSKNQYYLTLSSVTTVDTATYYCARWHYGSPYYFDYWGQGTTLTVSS VL: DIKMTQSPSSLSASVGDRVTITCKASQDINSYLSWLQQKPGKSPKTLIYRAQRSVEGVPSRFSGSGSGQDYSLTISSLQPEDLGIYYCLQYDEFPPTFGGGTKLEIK", "reported-value": 113}
{"binder": "APG (antibody, V domains shown, murine anti-PAI-1 antibody of DE2000153251; also called mAPG; mouse APG) VH: QVKLQESGPELVKPGASVKISCKASGYSFTDYNMNWVKQSKGKSLEWIGIIHPNSGTTTYNQKFKGKATLTVDQSSSTAYLQLNSLTSEDSAVYYCARSKLRFFDYWGQGTTVTVSS VL: DIKLTQSPSSMYASLGERVTITCKASQDIYSYLSWFQQKPGKSPKTLIYRANRLIDGVPSRFSGSGSGQDYSLTISSLEYEHMGIYYCLQYDEFPFTFGSGTKLEIK", "reported-value": 123}

Proceed to the following item.
Task: Bench note: what human plasma clot lysis, Imax @ 100 nM did APGv4 (antibody, V domains shown, humanized APG; captured by anti-human IgG (Fc); also called APG variant 4) VH: QVQLVQSGAEVKKPGASVKVSCKASGYSFTDYNMNWVRQAPGQGLEWIGIIHPNSGTTTYNQKFKGRATLTVDQSTSTAYMELSSLRSEDTAVYYCARSKLRFFDYWGQGTLVTVSS VL: DIQLTQSPSSLSASVGDRVTITCKASQDIYSYLSWFQQKPGKAPKTLIYRANRLIDGVPSRFSGSGSGQDYTFTISSLQPEDIATYYCLQYDEFPFTFGQGTKLEIK show?
Result: 116
